Cited source: the C3SDB collision cross section collection

- assay.context: [M+H]+; instrument: DT; stepped-field
reported.property: collision cross section (N2) (Å²)
Express your answer in Å², writing the number without its unit.

Known results for compounds:
- CC(=O)[C@H]1CC[C@H]2[C@@H]3CC=C4C[C@@H](O)CC[C@]4(C)[C@H]3CC[C@]12C: 177.25
- CC(=O)SCCNC(=O)CCNC(=O)[C@H](O)C(C)(C)COP(=O)(O)OP(=O)(O)OC[C@H]1O[C@@H](n2cnc3c(N)ncnc32)[C@H](O)[C@@H]1OP(=O)(O)O: 249.8
- NCCCNCCCN: 128.52
- NC(=O)c1ccc[n+]([C@@H]2O[C@H](COP(=O)([O-])O)[C@@H](O)[C@H]2O)c1 [Nicotinamide Mononucleotide]: 167.13
- Cc1cccc2ccccc12: 125.2

// fetch collision cross section (N2) given entry C[C@]12CC[C@H]3[C@@H](CCC4=CC(=O)CC[C@@]43C)[C@@H]1CC[C@@H]2O 183.82

// fetch collision cross section (N2) given entry N[C@@H](Cc1c[nH]c2ccccc12)C(=O)O 154.22

----------
Examples of compounds with documented collision cross section (N2) follow.
- assay.context: [M+H]+; instrument: TW
Express your answer in Å², writing the number without its unit.

Known results for compounds:
* CC(C)(C)NCC(O)c1cc(Br)c(N)c(Br)c1 (stereo not drawn) [Brombuterol] | 167
* CCCNC[C@]1(O)[C@H](C)O[C@@H](O[C@H]2[C@H](C)[C@@H](O[C@@H]3O[C@H](C)C[C@H](N(C)C)[C@H]3O)[C@](C)(O)C[C@@H](C)CN[C@H](C)[C@@H](O)[C@](C)(O)[C@@H](CC)OC(=O)[C@@H]2C)C[C@@]1(C)OC [Tulathromycin] | 286.4

// fetch collision cross section (N2) given entry COP(=O)(OC)OC1=C(Cl)C2C=CCC12 (stereo not drawn) [Heptenophos] 144.04

----------
- assay.context: [M+H]+; instrument: DT; single field, calibrated with Agilent tune mix (Agilent)
reported.property: collision cross section (N2) (Å²)
Express your answer in Å², writing the number without its unit.

Known results for compounds:
- CCCCC/C=C\C/C=C\C/C=C\CCCCCCC(=O)O[C@H](COC(=O)CCCCCCC/C=C\CCCCCC)COP(=O)(O)O[C@H]1C(O)C(O)C(O)[C@@H](O)C1O (stereo partly drawn) [PI(36:4)]: 296.5
- CCCCC/C=C\C/C=C\CCCCCCCCCC(=O)O[C@H](COC(=O)CCCCCCC/C=C\C/C=C\CCCCC)COP(=O)(O)OCCN [PE(38:4)]: 282.9

Consider the record given below.
// fetch collision cross section (N2) given entry CCCCCC/C=C\CCCCCCCCCCCC(=O)O[C@H](COC(=O)CCCCCCCCCCCCCCCCC)COP(=O)([O-])OCC[N+](C)(C)C [PC(38:1)] 298.8

----------
- assay.context: [M-H]-; instrument: TW; calibrated with phosphatidylcholines (ESI+) and phosphatidylethanolamines (ESI-)
Examples of compounds with documented collision cross section (N2) follow.
Express your answer in Å², writing the number without its unit.

- CCCCCCCCCC/C=C\CCCCCCCCCC(=O)O[C@H](COC(=O)CCCCCCCCCCC)COP(=O)(O)OCCN: 262.8
- CCCC/C=C\C/C=C\CCCCCCCC(=O)OC[C@H](COP(=O)(O)OCCN)OC(=O)CCCCCCC/C=C\CCCCCCCCC: 266.7
- CC/C=C\C/C=C\C/C=C\C/C=C\CCCCC(=O)OC[C@H](COP(=O)(O)OC[C@@H](O)CO)OC(=O)CCCCCCCCCCCCCCCCC: 271.3
- CCCCC/C=C\C/C=C\C/C=C\CCCCCCC(=O)OC[C@H](COP(=O)(O)OC[C@@H](O)CO)OC(=O)CCCCCCCCC/C=C\CCCCCCCC: 283.7
- CCCCC/C=C\C/C=C\CCCCCCCCCC(=O)O[C@H](COC(=O)CCCCCCC/C=C\C/C=C\CCCCC)COP(=O)(O)OCCN: 271.1
- CCCC/C=C\CCCCCCCC(=O)OC[C@H](COP(=O)(O)OC[C@@H](O)CO)OC(=O)CCCCCCC/C=C\CCCCCCCC: 261
- CCCCCC/C=C\CCCCCCCC(=O)OC[C@H](COP(=O)(O)OC[C@@H](O)CO)OC(=O)CCCCCCCCCCCCCCCCCCC: 275.7
- CC/C=C\C/C=C\C/C=C\C/C=C\CCCCC(=O)OC[C@H](COP(=O)(O)OC[C@@H](O)CO)OC(=O)CCCCCCCCC/C=C\CCCCCCCC: 276.5
- CCCCC/C=C\C/C=C\CCCCCCCCCCCC(=O)O[C@H](COC(=O)CCCCCCC/C=C\C/C=C\CCCCC)COP(=O)(O)OCCN: 277.3
- CCCCCCCC/C=C\CCCCCC/C=C\OC[C@@H](O)COP(=O)([O-])OCC[NH3+]: 208.9

// fetch collision cross section (N2) given entry CC/C=C\C/C=C\C/C=C\C/C=C\CCCCC(=O)OC[C@H](COP(=O)(O)O)OC(=O)CCCCCCCCC/C=C\CCCCCCCC 261.6

// fetch collision cross section (N2) given entry CCCCC/C=C\C/C=C\C/C=C\CCCCCCC(=O)O[C@H](COC(=O)CCCCCCC/C=C\CCCCCC)COP(=O)(O)O[C@H]1C(O)C(O)C(O)[C@@H](O)C1O (some centres undefined) 286.1

// fetch collision cross section (N2) given entry CCCCCCCCCC/C=C\CCCCCCCCCC(=O)O[C@H](COC(=O)CCCCCCCCCCC)COP(=O)(O)O[C@H]1C(O)C(O)C(O)[C@@H](O)C1O (some centres undefined) 283.7

// fetch collision cross section (N2) given entry CCCCC/C=C\C/C=C\C/C=C\CCCCC(=O)OC[C@H](COP(=O)(O)OCCN)OC(=O)CCCCCCCCCCC/C=C\C/C=C\CCCCC 276.2
